- Method Summary: Binding affinity to human IgG assessed as dissociation constant by SPR analysis
Bridge positions count the residues as written; N and C are the ends. Square brackets hold non-standard residues; d marks the D form. Peptide text beside a SMILES is read from it. ξ: configuration not given here. ξ4Pal = NC(Cc1ccncc1)C(=O)O
Measure: pKd
Give only the number. pKd is defined as minus log10 of concentration in molar units.

In plain terms, CC(=O)N[C@@H](CC(=O)O)C(=O)N[C@H]1CSSC[C@@H](C(=O)N[C@H](C(=O)N[C@@H](Cc2ccccc2)C(=O)NC(Cc2ccncc2)C(N)=O)[C@@H](C)O)NC(=O)[C@H](Cc2c[nH]c3ccccc23)NC(=O)[C@H](C(C)C)NC(=O)[C@H](CC(C)C)NC(=O)[C@H](CCC(=O)O)NC(=O)CNC(=O)[C@H](CCCCN)NC(=O)[C@H](Cc2cnc[nH]2)NC(=O)[C@H](Cc2ccc(O)cc2)NC(=O)[C@H](C)NC1=O (stereo partly specified) (Ac-DCAYHKGELVWCTF[ξ4Pal]-NH2; disulfide 2-12) has a documented pKd of 6.27
